- Assay target: Muscarinic acetylcholine receptor M1 (Homo sapiens) (UniProt P11229)
- Sequence (P11229 whole entry): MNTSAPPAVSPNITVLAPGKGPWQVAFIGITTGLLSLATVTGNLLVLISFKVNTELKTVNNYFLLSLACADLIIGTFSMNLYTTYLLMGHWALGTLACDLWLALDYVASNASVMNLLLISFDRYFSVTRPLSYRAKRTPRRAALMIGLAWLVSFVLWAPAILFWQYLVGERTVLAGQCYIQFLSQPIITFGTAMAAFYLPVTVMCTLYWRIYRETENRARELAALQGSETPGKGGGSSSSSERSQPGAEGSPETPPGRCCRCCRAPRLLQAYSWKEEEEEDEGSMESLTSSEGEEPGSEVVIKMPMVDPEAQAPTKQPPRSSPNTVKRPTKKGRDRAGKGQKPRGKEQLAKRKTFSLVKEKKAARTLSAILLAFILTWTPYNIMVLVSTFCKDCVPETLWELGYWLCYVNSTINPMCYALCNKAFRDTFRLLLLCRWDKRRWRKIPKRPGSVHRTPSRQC
- Experiment summary: Displacement of [3H]NMS from human muscarinic M1 receptor expressed in CHO Flp-In cells after 1 hr by microbeta liquid scintillation counting-based radioligand binding assay
- Type: cell-based
Measured property: pKb

Molecule	pKb
Cn1cc(-c2ccc(COc3c(F)ccc(F)c3-c3ccn([C@H]4CCCC[C@@H]4O)c(=O)c3)cc2)cn1 (racemic)	4.38
O=c1cc(-c2ccccc2OCc2ccc(F)cc2)ccn1[C@H]1CCCC[C@@H]1O (racemic)	4.22
O=c1cc(-c2ccccc2OCc2ccccc2F)ccn1[C@H]1CCCC[C@@H]1O (racemic)	4.52
Cn1cc(-c2ccc(COc3ccccc3-c3ccn([C@H]4CCCC[C@@H]4O)c(=O)c3)cc2)cn1 (racemic)	4.37
N#Cc1ccc(COc2ccccc2-c2ccn([C@H]3CCCC[C@@H]3O)c(=O)c2)cc1 (racemic)	4.85
N#Cc1cccc(COc2ccccc2-c2ccn([C@H]3CCCC[C@@H]3O)c(=O)c2)c1 (racemic)	4.06
O=c1cc(-c2ccccc2OCc2ccc(-c3cnn(C4CCCCC4)c3)cc2)ccn1[C@H]1CCCC[C@@H]1O (racemic)	5.67
COC(=O)c1ccc(COc2ccccc2-c2ccn([C@H]3CCCC[C@@H]3O)c(=O)c2)cc1 (racemic)	4.06
